The reported numbers originate from patent US8258115B2.

- Experiment Summary: Degradation of the active stereoisomer S,S at 40° C. and 75% R.H.
- Assay type: physicochemical
- Protocol Conditions: 30 days
Value Kind: percentage of active S,S stereoisomer remaining (%)
Answer format: numeric, % implied, no suffix.

Below, 4 molecules whose answers are already recorded.
Molecule	Recorded Value
C[S+](CCC(N)C(=O)[O-])C[C@H]1O[C@@H](n2cnc3c(N)ncnc32)[C@H](O)[C@@H]1O.Cl.Cl.[Cl-].[Cl-].[Mg+2] (some centres unmarked) [SAMe•2.0HCl•1.0MgCl2]	92.9
C[S+](CCC(N)C(=O)[O-])C[C@H]1O[C@@H](n2cnc3c(N)ncnc32)[C@H](O)[C@@H]1O.O=S(=O)(O)O.O=S(=O)(O)O.O=S(=O)([O-])[O-].[Mg+2] (some centres unmarked) [SAMe•2.0H2SO4•1.0Mg2SO4•0.4H2O]	91.3
C[S+](CCC(N)C(=O)[O-])C[C@H]1O[C@@H](n2cnc3c(N)ncnc32)[C@H](O)[C@@H]1O.O=S(=O)(O)O.O=S(=O)(O)O.[Cl-].[Cl-].[Mg+2] (some centres unmarked) [SAMe•2.0H2SO4•1.0MgCl2]	89.3
C[S+](CCC(N)C(=O)[O-])C[C@H]1O[C@@H](n2cnc3c(N)ncnc32)[C@H](O)[C@@H]1O.Cl.Cl.O=S(=O)([O-])[O-].[Mg+2] (some centres unmarked) [SAMe•2.0HCl•1.0MgSO4]	89.9

Switching to the query record.
Request: Field request: percentage of active S,S stereoisomer remaining | item: C[S+](CCC(N)C(=O)[O-])C[C@H]1O[C@@H](n2cnc3c(N)ncnc32)[C@H](O)[C@@H]1O.C[S+](CCC(N)C(=O)[O-])C[C@H]1O[C@@H](n2cnc3c(N)ncnc32)[C@H](O)[C@@H]1O.O=S(=O)(O)O.[Ca+2].[Cl-].[Cl-] (some centres unmarked) [SAMe•0.5H2SO4•0.5CaCl2]
Result: 89.8

* * *

- Experiment Summary: Stability test in thermostated heaters at 25° C. and 60% R.H., active ingredient %
- Type: physicochemical
- Protocol Conditions: heat-sealed aluminium/aluminium bags, 720 days
Quick reference for stability test percentage value (active ingredient %), 720 days among some compounds
Your answer should be a number followed by the unit of measure.

Compound	Recorded Value
C[S+](CCC(N)C(=O)[O-])C[C@H]1O[C@@H](n2cnc3c(N)ncnc32)[C@H](O)[C@@H]1O.Cl.Cl.O=S(=O)([O-])[O-].[Mg+2] (some centres unmarked) [SAMe•2.0HCl•1.0MgSO4]	0.87%

Request: Field request: stability test percentage value (active ingredient %), 720 days | item: C[S+](CCC(N)C(=O)[O-])C[C@H]1O[C@@H](n2cnc3c(N)ncnc32)[C@H](O)[C@@H]1O.C[S+](CCC(N)C(=O)[O-])C[C@H]1O[C@@H](n2cnc3c(N)ncnc32)[C@H](O)[C@@H]1O.O=S(=O)(O)O.[Cl-].[Cl-].[Mg+2] (some centres unmarked) [SAMe•0.5H2SO4•0.5MgCl2]
Result: 0.79%

* * *

- Experiment Summary: Stability test in thermostated heaters at 25° C. and 60% R.H., active ingredient %
- Type: physicochemical
- Protocol Conditions: heat-sealed aluminium/aluminium bags, 720 days
- Method: In the following Tables 2-13, the percentage values are repotted which were obtained in the stability tests carried out on the products of examples 1-6. The stability tests were carried out in thermostated heaters at 40° C. and 75% R.H (tables 2-7) as well as 25° C. and 60% R.H. (tables 8-13), preserving the samples in heat-sealed aluminium/aluminium bags according to the following criteria: the active ingredient % was determined for every sampling point taken under consideration.
Value Kind: stability test percentage value (active ingredient %), 720 days

Molecule	Recorded Value
C[S+](CCC(N)C(=O)[O-])C[C@H]1O[C@@H](n2cnc3c(N)ncnc32)[C@H](O)[C@@H]1O.O=S(=O)(O)O.O=S(=O)(O)O.[Ca+2].[Cl-].[Cl-] (stereo partly shown)	0.82%
C[S+](CCC(N)C(=O)[O-])C[C@H]1O[C@@H](n2cnc3c(N)ncnc32)[C@H](O)[C@@H]1O.C[S+](CCC(N)C(=O)[O-])C[C@H]1O[C@@H](n2cnc3c(N)ncnc32)[C@H](O)[C@@H]1O.O=S(=O)(O)O.O=S(=O)([O-])[O-].[Mg+2] (stereo partly shown)	0.99%
C[S+](CCC(N)C(=O)[O-])C[C@H]1O[C@@H](n2cnc3c(N)ncnc32)[C@H](O)[C@@H]1O.C[S+](CCC(N)C(=O)[O-])C[C@H]1O[C@@H](n2cnc3c(N)ncnc32)[C@H](O)[C@@H]1O.Cl.[Cl-].[Cl-].[Mg+2] (stereo partly shown) [SAMe•0.5HCl•0.5MgCl2]	1.07%

Switching to the query record.
Request: Field request: stability test percentage value (active ingredient %), 720 days | item: C[S+](CCC(N)C(=O)[O-])C[C@H]1O[C@@H](n2cnc3c(N)ncnc32)[C@H](O)[C@@H]1O.Cl.Cl.[Cl-].[Cl-].[Mg+2] (stereo partly shown) [SAMe•2.0HCl•1.0MgCl2]
Result: 0.98%

* * *

- Experiment Summary: Moisture % K.F. of the stability samples
- Format: physicochemical
- Protocol Conditions: sample used in the stability test
- Protocol: In the following Tables 2-13, the percentage values are repotted which were obtained in the stability tests carried out on the products of examples 1-6. The stability tests were carried out in thermostated heaters at 40° C. and 75% R.H (tables 2-7) as well as 25° C. and 60% R.H. (tables 8-13), preserving the samples in heat-sealed aluminium/aluminium bags according to the following criteria: […]
Quick reference for Moisture % K.F. among some molecules
Answer format: numeric, % implied, no suffix.

Molecule	Moisture % K.F. (%)
C[S+](CCC(N)C(=O)[O-])C[C@H]1O[C@@H](n2cnc3c(N)ncnc32)[C@H](O)[C@@H]1O.O=S(=O)(O)O.O=S(=O)(O)O.[Ca+2].[Cl-].[Cl-] (stereo partly shown)	0.35

Switching to the query record.
Request: Field request: Moisture % K.F. | item: C[S+](CCC(N)C(=O)[O-])C[C@H]1O[C@@H](n2cnc3c(N)ncnc32)[C@H](O)[C@@H]1O.C[S+](CCC(N)C(=O)[O-])C[C@H]1O[C@@H](n2cnc3c(N)ncnc32)[C@H](O)[C@@H]1O.O=S(=O)(O)O.[Cl-].[Cl-].[Mg+2] (stereo partly shown)
Result: 0.61

* * *

Quick reference for percentage of the active S,S stereoisomer remaining among some compounds
- Experiment Summary: Degradation of the active stereoisomer S,S at 25° C. and 65% R.H.
- Assay type: physicochemical
- Protocol Conditions: 30 days

Below, 4 compounds whose answers are already recorded.
Compound	Recorded Value
C[S+](CCC(N)C(=O)[O-])C[C@H]1O[C@@H](n2cnc3c(N)ncnc32)[C@H](O)[C@@H]1O.C[S+](CCC(N)C(=O)[O-])C[C@H]1O[C@@H](n2cnc3c(N)ncnc32)[C@H](O)[C@@H]1O.Cl.[Cl-].[Cl-].[Mg+2] (some centres unmarked) [SAMe•0.5HCl•0.5MgCl2]	96.5%
C[S+](CCC(N)C(=O)[O-])C[C@H]1O[C@@H](n2cnc3c(N)ncnc32)[C@H](O)[C@@H]1O.C[S+](CCC(N)C(=O)[O-])C[C@H]1O[C@@H](n2cnc3c(N)ncnc32)[C@H](O)[C@@H]1O.O=S(=O)(O)O.[Cl-].[Cl-].[Mg+2] (some centres unmarked)	97.8%
C[S+](CCC(N)C(=O)[O-])C[C@H]1O[C@@H](n2cnc3c(N)ncnc32)[C@H](O)[C@@H]1O.C[S+](CCC(N)C(=O)[O-])C[C@H]1O[C@@H](n2cnc3c(N)ncnc32)[C@H](O)[C@@H]1O.Cl.O=S(=O)([O-])[O-].[Mg+2] (some centres unmarked) [SAMe•0.5HCl•0.5MgSO4]	97.8%
C[S+](CCC(N)C(=O)[O-])C[C@H]1O[C@@H](n2cnc3c(N)ncnc32)[C@H](O)[C@@H]1O.C[S+](CCC(N)C(=O)[O-])C[C@H]1O[C@@H](n2cnc3c(N)ncnc32)[C@H](O)[C@@H]1O.O=S(=O)(O)O.O=S(=O)([O-])[O-].[Mg+2] (some centres unmarked)	97.8%

Request: Field request: percentage of the active S,S stereoisomer remaining | item: C[S+](CCC(N)C(=O)[O-])C[C@H]1O[C@@H](n2cnc3c(N)ncnc32)[C@H](O)[C@@H]1O.O=S(=O)(O)O.O=S(=O)(O)O.[Ca+2].[Cl-].[Cl-] (some centres unmarked)
Result: 95.9%

* * *

- Experiment Summary: Degradation of the active stereoisomer S,S at 40° C. and 75% R.H.
- Type: physicochemical
- Protocol Conditions: 90 days
Value Kind: percentage of active S,S stereoisomer remaining (%)
Answer format: numeric, % implied, no suffix.

Below, 5 compounds whose answers are already recorded.
Compound	Recorded Value
C[S+](CCC(N)C(=O)[O-])C[C@H]1O[C@@H](n2cnc3c(N)ncnc32)[C@H](O)[C@@H]1O.O=S(=O)(O)O.O=S(=O)(O)O.O=S(=O)([O-])[O-].[Mg+2] (stereo partly shown)	84.1
C[S+](CCC(N)C(=O)[O-])C[C@H]1O[C@@H](n2cnc3c(N)ncnc32)[C@H](O)[C@@H]1O.O=S(=O)(O)O.O=S(=O)(O)O.[Ca+2].[Cl-].[Cl-] (stereo partly shown)	83.3
C[S+](CCC(N)C(=O)[O-])C[C@H]1O[C@@H](n2cnc3c(N)ncnc32)[C@H](O)[C@@H]1O.Cl.Cl.[Cl-].[Cl-].[Mg+2] (stereo partly shown) [SAMe•2.0HCl•1.0MgCl2]	83.4
C[S+](CCC(N)C(=O)[O-])C[C@H]1O[C@@H](n2cnc3c(N)ncnc32)[C@H](O)[C@@H]1O.C[S+](CCC(N)C(=O)[O-])C[C@H]1O[C@@H](n2cnc3c(N)ncnc32)[C@H](O)[C@@H]1O.O=S(=O)(O)O.[Ca+2].[Cl-].[Cl-] (stereo partly shown)	83.6
C[S+](CCC(N)C(=O)[O-])C[C@H]1O[C@@H](n2cnc3c(N)ncnc32)[C@H](O)[C@@H]1O.C[S+](CCC(N)C(=O)[O-])C[C@H]1O[C@@H](n2cnc3c(N)ncnc32)[C@H](O)[C@@H]1O.Cl.[Cl-].[Cl-].[Mg+2] (stereo partly shown) [SAMe•0.5HCl•0.5MgCl2]	84.5

Request: Field request: percentage of active S,S stereoisomer remaining | item: C[S+](CCC(N)C(=O)[O-])C[C@H]1O[C@@H](n2cnc3c(N)ncnc32)[C@H](O)[C@@H]1O.O=S(=O)(O)O.O=S(=O)(O)O.[Cl-].[Cl-].[Mg+2] (stereo partly shown)
Result: 83.3

Request: // next record C[S+](CCC(N)C(=O)[O-])C[C@H]1O[C@@H](n2cnc3c(N)ncnc32)[C@H](O)[C@@H]1O.C[S+](CCC(N)C(=O)[O-])C[C@H]1O[C@@H](n2cnc3c(N)ncnc32)[C@H](O)[C@@H]1O.Cl.O=S(=O)([O-])[O-].[Mg+2] (stereo partly shown) [SAMe•0.5HCl•0.5MgSO4]
Result: 84.6

Request: // next record C[S+](CCC(N)C(=O)[O-])C[C@H]1O[C@@H](n2cnc3c(N)ncnc32)[C@H](O)[C@@H]1O.Cl.Cl.O=S(=O)([O-])[O-].[Mg+2] (stereo partly shown) [SAMe•2.0HCl•1.0MgSO4]
Result: 83.0

Request: // next record C[S+](CCC(N)C(=O)[O-])C[C@H]1O[C@@H](n2cnc3c(N)ncnc32)[C@H](O)[C@@H]1O.C[S+](CCC(N)C(=O)[O-])C[C@H]1O[C@@H](n2cnc3c(N)ncnc32)[C@H](O)[C@@H]1O.O=S(=O)(O)O.[Cl-].[Cl-].[Mg+2] (stereo partly shown)
Result: 83.6

Request: // next record C[S+](CCC(N)C(=O)[O-])C[C@H]1O[C@@H](n2cnc3c(N)ncnc32)[C@H](O)[C@@H]1O.C[S+](CCC(N)C(=O)[O-])C[C@H]1O[C@@H](n2cnc3c(N)ncnc32)[C@H](O)[C@@H]1O.O=S(=O)(O)O.O=S(=O)([O-])[O-].[Mg+2] (stereo partly shown)
Result: 85.6
